Known T½ of a selection of binders
Molecular target: T1, Monomeric human CD48-mmH (human)
T1 chain: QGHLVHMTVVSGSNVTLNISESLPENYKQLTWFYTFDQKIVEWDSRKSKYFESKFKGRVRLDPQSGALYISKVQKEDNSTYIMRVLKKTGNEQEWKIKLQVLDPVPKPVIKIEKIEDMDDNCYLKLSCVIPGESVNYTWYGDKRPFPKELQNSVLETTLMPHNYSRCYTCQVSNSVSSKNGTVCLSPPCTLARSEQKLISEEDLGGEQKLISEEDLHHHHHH
Assay: SPR (Biacore), antibody captured by anti-Fc, CD48 in solution, 37 C
Only the number, expressed in min, is required.

[
  {
    "binder": "H2M1763N (antibody, mouse IgG2, V domains shown, Human variable domains, mouse IgG2 Fc (H2M)) VH: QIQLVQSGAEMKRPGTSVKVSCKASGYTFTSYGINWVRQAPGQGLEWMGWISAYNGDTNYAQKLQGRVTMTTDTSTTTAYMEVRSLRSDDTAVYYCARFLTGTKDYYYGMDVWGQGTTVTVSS VL: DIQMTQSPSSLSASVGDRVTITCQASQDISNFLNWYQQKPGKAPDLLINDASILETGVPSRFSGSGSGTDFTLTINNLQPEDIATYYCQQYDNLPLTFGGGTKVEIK",
    "numeric_readout": 1
  }
]

Returns the measured T½ for the input binder. Input: H4H1774P (antibody, human IgG4, V domains shown, Human IgG4 Fc (H4H)) VH: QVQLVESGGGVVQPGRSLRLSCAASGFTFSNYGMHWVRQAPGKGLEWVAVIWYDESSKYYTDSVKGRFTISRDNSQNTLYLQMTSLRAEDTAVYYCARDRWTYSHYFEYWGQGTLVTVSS VL: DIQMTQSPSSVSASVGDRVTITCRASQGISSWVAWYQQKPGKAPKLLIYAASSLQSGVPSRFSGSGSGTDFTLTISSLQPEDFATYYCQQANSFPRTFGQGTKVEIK
108
